tested on: Epidermal growth factor receptor (Homo sapiens), P00533 [L861Q]; conditions: at 1 µM
Sequence (P00533 whole entry L861Q): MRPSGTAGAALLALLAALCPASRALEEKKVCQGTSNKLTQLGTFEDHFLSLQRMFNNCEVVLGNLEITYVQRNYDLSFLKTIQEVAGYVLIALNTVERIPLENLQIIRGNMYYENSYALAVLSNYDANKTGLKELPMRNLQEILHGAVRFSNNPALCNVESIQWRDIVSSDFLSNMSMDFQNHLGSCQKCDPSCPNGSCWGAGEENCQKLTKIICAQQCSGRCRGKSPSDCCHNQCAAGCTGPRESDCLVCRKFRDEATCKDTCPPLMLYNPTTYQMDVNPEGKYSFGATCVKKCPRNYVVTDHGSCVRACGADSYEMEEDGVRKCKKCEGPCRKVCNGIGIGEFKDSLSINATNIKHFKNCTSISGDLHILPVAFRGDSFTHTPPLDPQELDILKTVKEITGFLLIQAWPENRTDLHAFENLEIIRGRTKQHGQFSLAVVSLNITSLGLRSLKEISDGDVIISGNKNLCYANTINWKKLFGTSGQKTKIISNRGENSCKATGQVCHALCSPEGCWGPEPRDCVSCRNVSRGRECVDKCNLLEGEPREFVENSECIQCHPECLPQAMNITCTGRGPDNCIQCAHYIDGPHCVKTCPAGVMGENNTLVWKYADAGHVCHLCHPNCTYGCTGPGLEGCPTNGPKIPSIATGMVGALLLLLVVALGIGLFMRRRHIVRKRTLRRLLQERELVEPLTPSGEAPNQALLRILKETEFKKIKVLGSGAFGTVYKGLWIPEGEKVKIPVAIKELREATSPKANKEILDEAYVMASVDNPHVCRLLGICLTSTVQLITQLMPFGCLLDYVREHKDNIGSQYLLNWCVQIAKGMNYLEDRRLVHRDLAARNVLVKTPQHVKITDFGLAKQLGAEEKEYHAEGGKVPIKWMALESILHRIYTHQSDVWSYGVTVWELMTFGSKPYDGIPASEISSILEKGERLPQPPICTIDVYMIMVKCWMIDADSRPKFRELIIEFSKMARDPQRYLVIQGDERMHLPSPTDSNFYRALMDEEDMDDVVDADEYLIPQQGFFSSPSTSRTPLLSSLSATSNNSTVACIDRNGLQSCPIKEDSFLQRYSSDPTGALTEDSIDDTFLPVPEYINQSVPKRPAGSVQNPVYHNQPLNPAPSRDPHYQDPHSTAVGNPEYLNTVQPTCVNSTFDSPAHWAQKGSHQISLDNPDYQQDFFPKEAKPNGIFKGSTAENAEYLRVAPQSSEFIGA
As shown below, each of these molecules has a reported inhibition value.

Worked cases, inhibition given:
[
  {
    "entry.smiles": "COc1cc(/C=N/Nc2ncnc3c2cnn3C(C)C)ccc1O",
    "target.entity": "Epidermal growth factor receptor (Homo sapiens), P00533 [L861Q]",
    "inhibition": "3.26%"
  },
  {
    "entry.smiles": "Cc1ccc(Nc2ccnc(Nc3cccc(C(N)=O)c3)n2)cc1O",
    "target.entity": "Epidermal growth factor receptor (Homo sapiens), P00533 [L861Q]",
    "inhibition": "13%"
  },
  {
    "entry.smiles": "Cc1cc(Cl)cc2c1NC(=O)C2=NNc1ccc(S(N)(=O)=O)cc1",
    "target.entity": "Epidermal growth factor receptor (Homo sapiens), P00533 [L861Q]",
    "inhibition": "4.09%"
  },
  {
    "entry.smiles": "COc1ccc2ncnc(Nc3ccc(OCc4ccccc4)cc3)c2c1",
    "target.entity": "Epidermal growth factor receptor (Homo sapiens), P00533 [L861Q]",
    "inhibition": "39%"
  }
]

Please look at the following molecule next.
Note to self: inhibition recorded for `COc1cccc(-n2ncc3c(N/N=C/c4ccc(C)cc4)ncnc32)c1` was 6.09%

----------
biological target: Leucine-rich repeat serine/threonine-protein kinase 2 (Homo sapiens); details: at 0.1 µM;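 further: reported values are averaged percent inhibition of LRRK2 kinase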
Would you mind labelling by inhibition? At or over 4% is Condition met, under is Condition not met.

[
  {
    "entry.smiles": "Nc1nccc(C#Cc2cncnc2Nc2ccc(OCc3cccc(F)c3)c(Cl)c2)n1",
    "target.entity": "Leucine-rich repeat serine/threonine-protein kinase 2 (Homo sapiens)",
    "class": "Condition met"
  },
  {
    "entry.smiles": "CN(c1ccc(NC(=O)Nc2ccc(OC(F)(F)F)cc2)cc1)c1ccnc(Nc2cccc(S(N)(=O)=O)c2)n1",
    "target.entity": "Leucine-rich repeat serine/threonine-protein kinase 2 (Homo sapiens)",
    "class": "Condition met"
  },
  {
    "entry.smiles": "Oc1cccc(-c2nc(-c3ccccc3)[nH]c2-c2ccncc2)c1",
    "target.entity": "Leucine-rich repeat serine/threonine-protein kinase 2 (Homo sapiens)",
    "class": "Condition met"
  }
]

inhibition >= 4% for `COc1cc2ncnc(Nc3ccc(C)c(O)c3)c2cc1OC` ?
Condition not met

inhibition >= 4% for `Cc1nc(-c2ccccc2)n2nc(NCCCN3CCOCC3)ncc12` ?
Condition not met

----------
As shown below, each of these molecules has a reported inhibition value.
target: MAP kinase-interacting serine/threonine-protein kinase 2 (Homo sapiens) (UniProt Q9HBH9); conditions: at 0.1 µM
Sequence (Q9HBH9 whole entry, looked up): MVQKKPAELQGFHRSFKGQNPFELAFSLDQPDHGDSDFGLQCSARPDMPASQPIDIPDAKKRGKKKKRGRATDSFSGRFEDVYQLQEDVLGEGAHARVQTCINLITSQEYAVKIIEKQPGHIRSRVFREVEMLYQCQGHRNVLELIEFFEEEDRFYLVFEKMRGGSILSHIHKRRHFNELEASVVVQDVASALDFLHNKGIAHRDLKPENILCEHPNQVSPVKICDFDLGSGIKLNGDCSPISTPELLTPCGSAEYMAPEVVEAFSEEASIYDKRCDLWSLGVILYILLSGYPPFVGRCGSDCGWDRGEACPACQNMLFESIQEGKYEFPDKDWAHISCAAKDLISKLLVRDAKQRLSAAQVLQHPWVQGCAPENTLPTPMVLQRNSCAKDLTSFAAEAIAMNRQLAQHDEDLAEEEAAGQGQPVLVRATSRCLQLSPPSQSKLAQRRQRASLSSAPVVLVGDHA
Description: GSK_PKIS: MNK2 mean inhibition at 0.1 uM [Nanosyn]
Give the value in % but do not write % after it.

Worked cases, inhibition given:
[
  {
    "entry.smiles": "Nc1ccc(C#Cc2cncnc2Nc2ccc(OCc3cccc(F)c3)c(Cl)c2)cc1",
    "inhibition / %": 0.63
  },
  {
    "entry.smiles": "CS(=O)(=O)CCNCc1nc(-c2ccc3ncnc(Nc4ccc(OCc5cccc(C(F)(F)F)c5)cc4)c3c2)cs1",
    "inhibition / %": 0.84
  },
  {
    "entry.smiles": "Cc1ccc2c(-c3ccnc(Nc4ccc5c(c4)OCCO5)n3)c(-c3ccc(C(F)(F)F)cc3)nn2n1",
    "inhibition / %": 0.66
  },
  {
    "entry.smiles": "COc1cccc(-n2ncc3c(N/N=C/c4ccc(S(C)(=O)=O)cc4)ncnc32)c1",
    "inhibition / %": 16.7
  },
  {
    "entry.smiles": "Cc1cc(-c2ccccn2)cc(C)c1/C=C/c1cncc(-c2nn[nH]n2)c1",
    "inhibition / %": 0.76
  },
  {
    "entry.smiles": "Cc1ccc2c(-c3ccnc(Nc4cccc(C(F)(F)F)c4)n3)c(-c3ccccc3)nn2n1",
    "inhibition / %": 2.04
  },
  {
    "entry.smiles": "CN(c1ccc(NC(=O)Nc2ccc(OC(F)(F)F)cc2)cc1)c1ccnc(Nc2cccc(S(N)(=O)=O)c2)n1",
    "inhibition / %": 20.5
  },
  {
    "entry.smiles": "Cc1ccc(NC(=O)CC2CC2)cc1-c1ccc(C(=O)NCC2CC2)cc1",
    "inhibition / %": 1.63
  }
]

Note to self: inhibition recorded for `CCn1c(-c2nonc2N)nc2c(C#CC(C)(C)O)nc(OCCNC)cc21` was 0.5

Note to self: inhibition recorded for `[O-][S+]1CCN(Cc2ccc(-c3ccc4ncnc(Nc5ccc(OCc6ccccc6)c(Cl)c5)c4c3)o2)CC1` was 0.13

Note to self: inhibition recorded for `OCc1ccc(-c2nc(-c3ccccn3)c(-c3ccc4c(c3)OCO4)[nH]2)cc1` was 0.41

Note to self: inhibition recorded for `CN1CCN(C(=O)c2ccc(NC(=O)Nc3ccc(N(C)c4ccnc(Nc5ccc(CS(C)(=O)=O)cc5)n4)cc3)cc2)CC1` was 5.75

Note to self: inhibition recorded for `CCOc1nccc2c1nc(-c1nonc1N)n2CC` was 3.06

Note to self: inhibition recorded for `Cc1cc(O)cc(C)c1/C=C/c1cncc(C(=O)N(C)C)c1` was 2.2

Note to self: inhibition recorded for `O=C1Nc2ccccc2/C1=C/Nc1ccc2[nH]c(=O)[nH]c2c1` was 2.62

Note to self: inhibition recorded for `NS(=O)(=O)c1ccc(N/N=C2\C(=O)Nc3ccc(Cl)cc32)cc1` was 1.59

Note to self: inhibition recorded for `C[C@@H](Oc1cc(-n2cnc3ccc(OC[C@@H](O)CO)cc32)sc1C(N)=O)c1ccccc1Cl` was 0.15

Note to self: inhibition recorded for `O=C1Nc2ccc(-c3cccnc3)cc2C1=Cc1cc(Br)c(O)c(Br)c1` was 6.02

Note to self: inhibition recorded for `COc1cc(/C=N/Nc2ncnc3c2cnn3C(C)C)ccc1O` was 1.33

Note to self: inhibition recorded for `COc1cccc(-n2ncc3c(N/N=C/c4ccc(C)cc4)ncnc32)c1` was 3.79

----------
target: SRSF protein kinase 3 (Homo sapiens); settings: at 1 µM;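 further: values are mean inhibition of MSSK1 (alias of SRPK3)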
As shown below, each of these molecules has a reported inhibition value.
Give the value in % but do not write % after it.

[
  {
    "entry.smiles": "Oc1cccc(-c2nc(-c3ccccc3)[nH]c2-c2ccncc2)c1",
    "target.entity": "SRSF protein kinase 3 (Homo sapiens)",
    "unit.spec": "%",
    "inhibition": 12.3
  },
  {
    "entry.smiles": "Cc1ccc(O)cc1Nc1ccnc2ccc(S(C)(=O)=O)cc12",
    "target.entity": "SRSF protein kinase 3 (Homo sapiens)",
    "unit.spec": "%",
    "inhibition": -1.35
  },
  {
    "entry.smiles": "OCc1ccc(-c2nc(-c3ccccn3)c(-c3ccc4c(c3)OCO4)[nH]2)cc1",
    "target.entity": "SRSF protein kinase 3 (Homo sapiens)",
    "unit.spec": "%",
    "inhibition": -0.15
  }
]

Note to self: inhibition recorded for `NS(=O)(=O)c1ccc(NC=C2C(=O)Nc3ccc4ncsc4c32)cc1` was -0.55

Note to self: inhibition recorded for `Cc1ccc2c(c1)/C(=N/Nc1ccc(S(N)(=O)=O)cc1)C(=O)N2` was -2.57

----------
biological target: Vascular endothelial growth factor receptor 3 (Homo sapiens) (UniProt P35916); settings: at 1 µM;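 further: mean FLT4 inhibition, averaged across replicates, from the GSK PKIS kinase inhibitor screen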
Sequence (P35916 whole entry): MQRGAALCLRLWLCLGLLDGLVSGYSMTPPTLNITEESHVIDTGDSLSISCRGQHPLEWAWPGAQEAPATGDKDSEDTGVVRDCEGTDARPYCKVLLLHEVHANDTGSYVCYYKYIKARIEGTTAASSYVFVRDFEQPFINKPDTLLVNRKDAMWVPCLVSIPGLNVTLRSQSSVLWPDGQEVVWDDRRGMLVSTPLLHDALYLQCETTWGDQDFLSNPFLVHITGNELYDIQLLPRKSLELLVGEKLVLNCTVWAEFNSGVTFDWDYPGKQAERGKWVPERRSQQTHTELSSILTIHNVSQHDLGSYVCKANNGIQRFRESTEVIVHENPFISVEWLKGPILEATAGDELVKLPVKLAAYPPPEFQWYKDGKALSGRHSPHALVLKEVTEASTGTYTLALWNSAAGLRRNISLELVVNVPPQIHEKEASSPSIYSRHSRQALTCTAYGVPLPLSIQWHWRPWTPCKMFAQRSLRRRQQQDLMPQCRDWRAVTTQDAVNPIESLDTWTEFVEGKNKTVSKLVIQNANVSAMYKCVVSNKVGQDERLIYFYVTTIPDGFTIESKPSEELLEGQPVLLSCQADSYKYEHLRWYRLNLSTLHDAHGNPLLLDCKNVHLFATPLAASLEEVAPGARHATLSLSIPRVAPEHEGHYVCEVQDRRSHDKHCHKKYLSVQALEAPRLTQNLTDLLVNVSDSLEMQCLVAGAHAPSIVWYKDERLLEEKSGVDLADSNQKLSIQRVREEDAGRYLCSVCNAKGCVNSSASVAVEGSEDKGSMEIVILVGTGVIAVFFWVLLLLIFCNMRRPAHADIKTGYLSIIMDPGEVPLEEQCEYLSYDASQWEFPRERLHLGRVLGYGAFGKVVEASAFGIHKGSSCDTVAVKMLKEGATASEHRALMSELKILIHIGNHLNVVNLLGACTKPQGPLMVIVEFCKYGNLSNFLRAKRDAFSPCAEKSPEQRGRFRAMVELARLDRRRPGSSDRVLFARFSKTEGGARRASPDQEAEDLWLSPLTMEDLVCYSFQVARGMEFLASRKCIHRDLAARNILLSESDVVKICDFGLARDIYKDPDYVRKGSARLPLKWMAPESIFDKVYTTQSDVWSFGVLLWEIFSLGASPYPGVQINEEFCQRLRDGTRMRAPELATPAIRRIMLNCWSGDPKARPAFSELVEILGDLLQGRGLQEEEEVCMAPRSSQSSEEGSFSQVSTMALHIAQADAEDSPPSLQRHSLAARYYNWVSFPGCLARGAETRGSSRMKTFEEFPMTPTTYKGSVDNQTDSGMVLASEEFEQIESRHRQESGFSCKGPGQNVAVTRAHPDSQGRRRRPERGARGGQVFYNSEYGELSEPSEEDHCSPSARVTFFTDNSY
Measured inhibition determines class: range 1: < 10%; range 2: ≥ 10% and < 30%; range 3: ≥ 30%

Completed entries (count: 5):
[
  {
    "entry.smiles": "c1ccc(Nc2ncc(-c3ccccc3)o2)cc1",
    "target.entity": "Vascular endothelial growth factor receptor 3 (Homo sapiens) (UniProt P35916)",
    "class": "range 2"
  },
  {
    "entry.smiles": "CCS(=O)(=O)c1ccc(OC)c(Nc2nccc(N(C)c3ccc4c(C)n[nH]c4c3)n2)c1",
    "target.entity": "Vascular endothelial growth factor receptor 3 (Homo sapiens) (UniProt P35916)",
    "class": "range 3"
  },
  {
    "entry.smiles": "CN(C)CCCn1c(-c2nonc2N)nc2cnccc21",
    "target.entity": "Vascular endothelial growth factor receptor 3 (Homo sapiens) (UniProt P35916)",
    "class": "range 2"
  },
  {
    "entry.smiles": "Cc1ccc(NC(=O)CC2CC2)cc1-c1ccc(C(=O)NCC2CC2)cc1",
    "target.entity": "Vascular endothelial growth factor receptor 3 (Homo sapiens) (UniProt P35916)",
    "class": "range 1"
  },
  {
    "entry.smiles": "COc1cc(/C=N/Nc2ncnc3c2cnn3C(C)C)ccc1O",
    "target.entity": "Vascular endothelial growth factor receptor 3 (Homo sapiens) (UniProt P35916)",
    "class": "range 2"
  }
]

Band of `N#Cc1cccc(Nc2nccc(-c3cnn4ncccc34)n2)c1` ?
range 2

Band of `COc1cccc(-n2ncc3c(N/N=C/c4ccc(S(C)(=O)=O)cc4)ncnc32)c1` ?
range 3

----------
target: Leukocyte tyrosine kinase receptor (Homo sapiens); details: at 1 µM;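 further: each value is the mean inhibition of LTK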
assay.endpoint: inhibition (%)
Give the value in % but do not write % after it.

Worked cases, inhibition given:
[
  {
    "entry.smiles": "Cc1ccc(NC(=O)CC2CC2)cc1-c1ccc(C(=O)NCC2CC2)cc1",
    "unit.spec": "%",
    "inhibition": 4.25
  },
  {
    "entry.smiles": "NS(=O)(=O)c1ccc(-c2cc3ccncc3cc2OCc2ccccc2)cc1",
    "unit.spec": "%",
    "inhibition": 14.8
  },
  {
    "entry.smiles": "OCc1ccc(-c2nc(-c3ccccn3)c(-c3ccc4c(c3)OCO4)[nH]2)cc1",
    "unit.spec": "%",
    "inhibition": 4.28
  }
]

Note to self: inhibition recorded for `c1ccc(Nc2ncc(-c3ccccc3)o2)cc1` was 6.52

Note to self: inhibition recorded for `O=C1Nc2ccc(-c3cccnc3)cc2C1=Cc1cc(Br)c(O)c(Br)c1` was 23

Note to self: inhibition recorded for `O=C1Nc2ccccc2/C1=C/Nc1ccc2[nH]c(=O)[nH]c2c1` was 13.2

Note to self: inhibition recorded for `CN(C)CCCn1c(-c2nonc2N)nc2cnccc21` was 2.08
